Origin of the recorded values: patent US20190248902A1

# experimental.system: T1, human ASGR-1 (wild type) (human, UniProt P07306 1-291)
# T1 construct: also called wt ASGR1; huASGR-1
# T1 sequence: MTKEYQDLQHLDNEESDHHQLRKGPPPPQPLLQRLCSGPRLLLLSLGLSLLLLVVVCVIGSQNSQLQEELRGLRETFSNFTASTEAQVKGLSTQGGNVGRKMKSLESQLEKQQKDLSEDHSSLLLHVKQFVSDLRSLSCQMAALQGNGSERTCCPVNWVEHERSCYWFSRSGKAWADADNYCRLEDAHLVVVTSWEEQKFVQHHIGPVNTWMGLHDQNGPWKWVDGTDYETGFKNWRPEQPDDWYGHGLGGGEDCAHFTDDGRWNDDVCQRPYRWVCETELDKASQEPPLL
# assay.summary: FACS ratio: 65C12 geomean / this mAb geomean
Listed binders paired with reported Expression Normalization to mAb 65C12
I'd appreciate a reply containing only the number, no unit.

Reference set (3 entries):
{"columns": ["binder", "Expression Normalization to mAb 65C12"],
 "data": [
  ["85F7 (antibody, V domains shown, mAb) VH: QVQLQQWGAGLLKPSEPLSLTCAVYGGSFSGPYWSWIRQPPGKGLEWIGEINHSGSTNYNPSLKSRVTISVDTSKNQFSLKLTSVTAADTAVYYCARDYGGLDVWGQGTTVTVSS VL: EPVLTQSPGTLSLSPGERATLSCRASQNIYSNYLAWYQQKPGQAPRLLIYGASSRATGIPDRFSGSGSGTDFTLTISRLEPEDFAVYCCQQYESSPWTFGQGTKVEIK", 1.7],
  ["59F2 (antibody, V domains shown, mAb) VH: EVQLVESGGGLVQPGGSLRLSCGASGFTFSSYSMNWVRQAPGKGLEWVSYISGSSNIIYYTDSVKGRFTISRDNAKNSLYLQMNSLRDEDTAVYYCARADTPMVLYFYGMDVWGQGTTVTVSS VL: SYELTQPPSVSVSPGQTASITCSGDKLGDKYASWYQQRPGQSPVLVIYQDNKRPSGIPERFSGSNSGNTATLTISGTQAMDEADYYCQAWDNNTVVFGGGTKLTVL", 2.01],
  ["52H2 (antibody, V domains shown, mAb) VH: EVQLLESGGGLVQPGGSLRLSCAASGFTFSRNAMSWVRQAPGMGLEWVSAISGRGGNTFYADSVKGRFTVSRDNSKNTLFLQMNSLRAEDTAVYYCAKNGREQWLDYWGQGTLVTVSS VL: DIQMTQSPSSVSASVGDRVTITCRASQNITNWLAWFQQKPGRAPKLLIYTTSSLQSGVPSRFSGSGSGTDFTLTISSLQPEDFATYCCQQTNSFPWTFGHGTKVEVK", 1.17]
]}

Request: Fill blank: measured Expression Normalization to mAb 65C12 of the binder 199A7 (antibody, V domains shown, mAb) VH: QVQLVESGGGVVQPGRSLRLSCAASGFTFSNYGMHWVRQAPGKGLEWVAIIWFDGSNKYYADSVKGRFTISRDNSKNTLFLQMSSLRAEDTAVYYCAREWLQFRYYYGMDVWGQGTTVTVSS VL: DIQMTQSPSSLSASVGDRVTITCRASQGIRKDLGWYQQKPGKAPKRLIYAASSLQSGVPSRFSGSGSGTEFTLTISSLQPEDFATYVCLQHYRYPFTFGPGTKVDFK is ____.
Response: 3.3

Request: Fill blank: measured Expression Normalization to mAb 65C12 of the binder 10G6 (antibody, V domains shown, mAb) VH: QVQLVQSGAEVKKPGASVKVSCKASGYTFTAYHMHWVRQAPGQGLEWMGWINPNNNGTNYAQKFQGRVTMTRDTSISTAYMELSRLRSDDTAVYYCGRDVTSSFDYWGQGTLVTVSS VL: DIQMTQSPSSVSASVGDRVTITCRASQGISKWLAWYQQKPGKAPKILIYAAYSLQSGVPARFSGSGSGTDFTLTIRSLQPEDFATYYCQQANSFPFTFGPGTKVDIK is ____.
Response: 1.3

Request: Fill blank: measured Expression Normalization to mAb 65C12 of the binder 149D11 (antibody, V domains shown, mAb) VH: EVQLLESGGGLVQPGGSLRLSCAASGFTFSSYAMSWVRQAPGKGLEWVSAISGRGGNTFYADSVKGRFTISRDNSKNTLYRQMNSLRAEDTAVYYCAKKDYDYVWGSPYFDYWGQGTLVTVSS VL: DIQMTQSPASVSASVGDRVTITCRASQNISNWLTWYQQKPGKAPKLLIYAASSLQSGVPSRFSGSGSGTDFTLSISSLQPEDFATYYCQQTDSFPFTFGPGTKVDVK is ____.
Response: 2.38

Request: Fill blank: measured Expression Normalization to mAb 65C12 of the binder 213B3 (antibody, V domains shown, mAb) VH: QVQLVESGGGVVQPGRSLRLSCAASGFTFSSYGMHWVRQAPGKGLEWVAVIWYDGSNKNYADSVKGRFTISRDNSKNTLYLQMNSLRAEDTAVYYCARDRTVGYDGFDIWGQGTMVTVSS VL: DIQMTQSPSSLSASVGDRVTITCRASQGIGKYLAWFQQKPGKAPKSLISAASSVLSGVPSKFSGSGSGTDFTLTISSLQPEDFATYYCQKYDTYPFTFGPGTKVDIK is ____.
Response: 3.72
